# method-description: Aqueous solubility by UV/Vis spectroscopy (extinction at 270 nm) of the filtered suspension
# Assay type: physicochemical
# reported-conditions: water, thermodynamic from solid; suspension of form B in H2O stirred at room temperature for two days; remaining solid is form A; aliquot diluted by a factor of 500, extinction at 270 nm
assay-endpoint: solubility at 2 days

What measured solubility at 2 days goes with CCC1(c2c[nH]cn2)Cc2ccc(F)cc2C1.Cl (stereo not shown) [form A] ?
~46 mg/mL
